Where these numbers come from: ChEMBL document CHEMBL4811254

Below is a list of entries, each paired with its recorded inhibition value.
# MEASUREMENT TARGET: UniProt P29990
# EXPERIMENTAL PROTOCOL: Inhibition of NS2B-NS3 protease in DENV2proHeLa system assessed as inhibition of luciferase signal at 12.5 uM incubated for 24 hrs by luciferase reporter gene assay
# Assay type: cell-based
# MEASUREMENT CONDITIONS: HeLa

query: Tell me its inhibition on UniProt P29990: CCCCCC(=O)N[C@H](C(=O)N1CCC(C(N)=O)CC1)c1ccc(OCc2ccccc2)cc1
result: 28%

* * *

# EXPERIMENTAL PROTOCOL: Cytotoxicity against human HeLa cells assessed as reduction in cell viability incubated for 24 hrs by CellTiter-Blue assay
# Format: cell-based
Below is a list of entries, each paired with its recorded CC50 at 24 h value.

NC(=O)c1cccc(NC(=O)[C@@H](NC(=O)c2cccc(C(=O)N3CCOCC3)c2)c2ccc(OCc3ccccc3)cc2)c1 > 100 µM
NC(=O)c1ccc(CNC(=O)[C@@H](NC(=O)c2cccs2)c2ccc(OCc3ccccc3)cc2)cc1 > 50 µM
CCCCCCC(=O)N[C@H](C(=O)NCc1ccc(C(N)=O)cc1)c1ccc(OCc2ccccc2)cc1 > 50 µM

query: Return reported CC50 at 24 h. Input molecule: COc1cccc(COc2ccc([C@H](NC(=O)c3ccc(Oc4ccccc4)cc3)C(=O)Nc3cccc(C(N)=O)c3)cc2)c1
result: > 100 µM

query: Return reported CC50 at 24 h. Input molecule: NC(=O)c1cccc(NC(=O)[C@@H](NC(=O)c2ccc(-c3ccccc3)cc2)c2ccc(OCc3ccccc3)cc2)c1
result: > 100 µM

query: Return reported CC50 at 24 h. Input molecule: CCCCCC(=O)N[C@H](C(=O)NCCc1ccc(O)cc1)c1ccc(OCc2ccccc2)cc1
result: > 25 µM

query: Return reported CC50 at 24 h. Input molecule: NC(=O)c1ccc(CNC(=O)[C@@H](NC(=O)c2ccc(Oc3ccccc3)cc2)c2ccc(OCc3ccccc3)cc2)cc1
result: 18 µM

query: Return reported CC50 at 24 h. Input molecule: CCCCCC(=O)N[C@H](C(=O)NCc1ccc(C(N)=O)cc1)c1ccc(OCc2c(Cl)cccc2Cl)cc1
result: > 50 µM

* * *

# MEASUREMENT TARGET: Prothrombin (Homo sapiens)
# EXPERIMENTAL PROTOCOL: Inhibition of thrombin in human plasma using Boc-Val-Pro-Arg-AMC as substrate at 25 uM preincubated with enzyme for 15 mins followed by substrate addition and measured for 15 mins by fluorimetric assay
# Assay type: cell-free
# MEASUREMENT CONDITIONS: time 30.0 min
The source made the active and inactive calls. How the calls were made is not given here.
MEASURED METRIC: inhibition

# example entries with known answers
NC(=O)c1cccc(NC(=O)[C@@H](NC(=O)c2ccc3c(c2)OCCO3)c2ccc(OCc3ccccc3)cc2)c1 inactive
NC(=O)c1ccc(CNC(=O)[C@@H](NC(=O)Cc2ccc(-c3ccccc3)cc2)c2ccc(OCc3ccccc3)cc2)cc1 inactive
CCCCCC(=O)N[C@@H](Cc1ccccc1)C(=O)NCc1ccc(C(N)=O)cc1 inactive
COCCOCC(=O)N[C@H](C(=O)NCc1ccc(C(N)=O)cc1)c1ccc(OCc2ccccc2)cc1 inactive
CCCCCCCS(=O)(=O)N[C@H](C(=O)NCc1ccc(C(N)=O)cc1)c1ccc(OCc2ccccc2)cc1 inactive
CCCCCCCC(=O)N[C@H](C(=O)NCc1ccc(C(N)=O)cc1)c1ccc(OCc2ccccc2)cc1 inactive

query: Return reported inhibition. Input compound: NC(=O)c1cccc(NC(=O)[C@@H](NC(=O)c2ccc(-c3ccc(Cl)cc3)cc2)c2ccc(OCc3ccccc3)cc2)c1
result: inactive

query: Return reported inhibition. Input compound: CCCCCC(=O)N[C@H](C(=O)NCc1ccc(C(=O)NO)cc1)c1ccc(OCc2ccccc2)cc1
result: inactive

query: Return reported inhibition. Input compound: CCCCCC(=O)N[C@H](C(=O)NCc1cccc(OC)c1)c1ccc(OCc2ccccc2)cc1
result: inactive

* * *

# EXPERIMENTAL PROTOCOL: Passive membrane permeability of the compound in phosphate buffered saline assessed as mass retention of the compound at 200 uM incubated for 5 hrs by PAMPA assay based HPLC analysis
# Type: ADME
Below is a list of entries, each paired with its recorded Activity value.
Hi! Could you send only the number? It should be in %, unit omitted.

COMPOUND	MEASURE UNIT	Activity
NC(=O)c1cccc(NC(=O)[C@@H](NC(=O)c2ccc(-c3ccc(Cl)cc3)cc2)c2ccc(OCc3ccccc3)cc2)c1	%	5.5
NC(=O)c1ccc(CNC(=O)[C@@H](NC(=O)c2ccc(Oc3ccccc3)cc2)c2ccc(OCc3ccccc3)cc2)cc1	%	8.9
Cn1c(=O)c2c(ncn2C)n(C)c1=O	%	2.4
NC(=O)N1c2ccccc2C=Cc2ccccc21 [CARBAMAZEPINE]	%	-7.6
NC(=O)c1cccc(NC(=O)[C@@H](NC(=O)c2ccc(Oc3ccc(C(F)(F)F)cc3)cc2)c2ccc(OCc3ccccc3)cc2)c1	%	3.7
O=C1NC(=O)C(c2ccccc2)(c2ccccc2)N1	%	8.7

query: Return reported Activity. Input compound: NC(=O)c1cccc(NC(=O)[C@@H](NC(=O)c2ccc(-c3ccco3)cc2)c2ccc(OCc3ccccc3)cc2)c1
result: 15

query: Return reported Activity. Input compound: N#Cc1ccc(Oc2ccc(C(=O)N[C@H](C(=O)Nc3cccc(C(N)=O)c3)c3ccc(OCc4ccccc4)cc3)cc2)cc1
result: 9.9

* * *

# EXPERIMENTAL PROTOCOL: Cytotoxicity against human HeLa cells assessed as reduction in cell viability incubated for 24 hrs by CellTiter-Blue assay
# Assay type: cell-based
Below is a list of entries, each paired with its recorded CC50 at 24 h value.

MOLECULE	CC50 at 24 h
NC(=O)c1cccc(NC(=O)[C@@H](NC(=O)C2CCN(c3ccccc3)CC2)c2ccc(OCc3ccccc3)cc2)c1	> 50 µM
COCCOCC(=O)N[C@H](C(=O)NCc1ccc(C(N)=O)cc1)c1ccc(OCc2ccccc2)cc1	> 50 µM
CCCCCC(=O)N[C@H](C(=O)Nc1ccc(CC(N)=O)cc1)c1ccc(OCc2ccccc2)cc1	> 50 µM
CCCCCC(=O)N[C@H](C(=O)Nc1cccc(C(N)=O)c1)c1ccc(OCc2ccccc2)cc1	> 50 µM
NC(=O)c1cccc(NC(=O)[C@@H](NC(=O)c2ccc3ccccc3c2)c2ccc(OCc3ccccc3)cc2)c1	> 100 µM
CCCCCC(=O)N[C@H](C(=O)NCCc1ccc(C(N)=O)cc1)c1ccc(OCc2ccccc2)cc1	> 100 µM

As a next step, examine the molecule that follows.
query: Return reported CC50 at 24 h. Input molecule: NC(=O)c1cccc(NC(=O)[C@@H](NC(=O)c2ccc(Oc3ccccc3)cc2)c2ccc(Oc3ccccc3)cc2)c1
result: > 50 µM

* * *

# EXPERIMENTAL PROTOCOL: Passive membrane permeability of the compound in phosphate buffered saline at 200 uM incubated for 5 hrs by PAMPA assay based HPLC analysis
# Format: ADME
# MEASUREMENT CONDITIONS: PAMPA, read-out: permeability
Below is a list of entries, each paired with its recorded Papp at 5 h, 200 µM value.
Hi! Could you send only the number? It should be in ×10⁻⁶ cm/s, unit omitted.

# example entries with known answers
COMPOUND	Papp at 5 h, 200 µM, ×10⁻⁶ cm/s
NC(=O)c1ccc(CNC(=O)[C@@H](NC(=O)c2ccc(Oc3ccccc3)cc2)c2ccc(OCc3ccccc3)cc2)cc1	0.61
N#Cc1ccc(Oc2ccc(C(=O)N[C@H](C(=O)Nc3cccc(C(N)=O)c3)c3ccc(OCc4ccccc4)cc3)cc2)cc1	1
NC(=O)c1cccc(NC(=O)[C@@H](NC(=O)c2ccc(Oc3ccc4c(c3)OCO4)cc2)c2ccc(OCc3ccccc3)cc2)c1	0.8
NC(=O)c1cccc(NC(=O)[C@@H](NC(=O)c2ccc(-c3ccc(Cl)cc3)cc2)c2ccc(OCc3ccccc3)cc2)c1	0.7

As a next step, examine the compound that follows.
query: Return reported Papp at 5 h, 200 µM. Input compound: NC(=O)N1c2ccccc2C=Cc2ccccc21 [CARBAMAZEPINE]
result: 8.9

* * *

# MEASUREMENT TARGET: Genome polyprotein (dengue virus type 2, UniProt P29990)
# EXPERIMENTAL PROTOCOL: Competitive inhibition of DENV2 NS2B-NS3 protease expressed in Escherichia coli BL21 lambda(DE3) using FRET substrate preincubated with enzyme for 15 mins followed by varying concentrations of substrate addition for 15 mins by Cheng-Prusoff plot analysis
MEASURED METRIC: pKi
Would you please state pKi, meaning minus log10 of the concentration in mol/L, as a bare number?

# example entries with known answers
NC(=O)c1cccc(NC(=O)[C@@H](NC(=O)c2ccc(Oc3ccccc3)cc2)c2ccc(OCc3ccccc3)cc2)c1 5.21
NC(=O)c1cccc(NC(=O)[C@@H](NC(=O)c2ccc(C(=O)c3ccccc3)cc2)c2ccc(OCc3ccccc3)cc2)c1 5.46
NC(=O)c1cccc(NC(=O)[C@@H](NC(=O)c2ccc(Oc3ccc(C(F)(F)F)cc3)cc2)c2ccc(OCc3ccccc3)cc2)c1 5.20

As a next step, examine the compound that follows.
query: Tell me its pKi on Genome polyprotein (dengue virus type 2, UniProt P29990): NC(=O)c1cccc(NC(=O)[C@@H](NC(=O)c2ccc(-c3ccc(Cl)cc3)cc2)c2ccc(OCc3ccccc3)cc2)c1
result: 5.16
